Test system: novel environment-stressed mice
Assay: In Vivo Assay-Stress-Induced Fecal Output (Fecal Output for 1 hr)
Parameters: species or system mouse
Conditions: 30 mg/kg oral, novel environment-stressed mice, 1 hr
Experimental: This assay evaluates the fecal output in novel environment-stressed mice to that of acclimated controls. Methods: Adult, male, Crl:CD-1(ICR) mice, weighing ˜30-35 g were used in these studies, with a minimum of 10 mice per dose group. One group of mice was assigned as acclimated, or “non-stressed” controls. […] The number of fecal pellets excreted by each mouse was determined at hourly intervals following placement of the mice in the individual cages. […]
Below, each entry is listed alongside its reported Fecal Output (# pellets) cpd.
Could you give me the number in pellets? Just the number is fine.

Examples from the recorded data:
Molecule: Cc1cc(O)cc(C)c1C[C@H](N)C(=O)N(Cc1ccncc1)[C@@H](C)c1nc(-c2ccccc2)c[nH]1 [Cpd 57]
Measurement Target: novel environment-stressed mice
Unit String: pellets
Fecal Output (# pellets) cpd: 7.6
//
Molecule: CC(C)N(C(=O)[C@@H](N)Cc1ccc(O)cc1)[C@@H](C)c1nc(-c2ccccc2)c[nH]1 [Cpd 225]
Measurement Target: novel environment-stressed mice
Unit String: pellets
Fecal Output (# pellets) cpd: 7.3
//
Molecule: Cc1cc(C(N)=O)cc(C)c1C[C@H](N)C(=O)N(Cc1nc(-c2ccccc2)c[nH]1)[C@H](C)c1ccccc1 [Cpd 94]
Measurement Target: novel environment-stressed mice
Unit String: pellets
Fecal Output (# pellets) cpd: 9.4

// Fecal Output (# pellets) cpd lookup, molecule = CC(=O)Nc1ccc(CN(C(=O)[C@@H](N)Cc2c(C)cc(O)cc2C)[C@@H](C)c2nc(-c3ccccc3)c[nH]2)cc1 [Cpd 79] , result: 7.1

----------
Target: delta opioid receptor (NG108-15 cell membranes) (Mus musculus, UniProt P32300)
Construct: NG108-15 cell membranes were purchased from Applied Cell Sciences (Rockville, Md.); host or cells: NG108-15 cells (membranes purchased)
Sequence (P32300 whole entry): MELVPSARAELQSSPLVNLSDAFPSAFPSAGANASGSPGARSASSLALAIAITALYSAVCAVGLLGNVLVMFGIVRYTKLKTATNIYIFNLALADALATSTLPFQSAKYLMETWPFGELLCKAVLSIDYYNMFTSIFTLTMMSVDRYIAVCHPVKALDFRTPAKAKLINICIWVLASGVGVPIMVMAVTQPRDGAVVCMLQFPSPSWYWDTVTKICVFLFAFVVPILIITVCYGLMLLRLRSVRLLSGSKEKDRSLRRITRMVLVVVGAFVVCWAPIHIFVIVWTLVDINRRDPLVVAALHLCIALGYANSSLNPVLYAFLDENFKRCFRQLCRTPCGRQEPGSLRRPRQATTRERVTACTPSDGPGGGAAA
Experiment: Delta Opioid Receptor Functional Assay: [35S]GTPγS Binding in NG108-15 Cell Membranes, Version 2
Type: biochemical
Details: NG108-15 cell membranes, version 2; % inhibition of agonist-stimulated GTPγS binding
Method: NG108-15 cell membranes were purchased from Applied Cell Sciences (Rockville, Md.). 8 mg/ml of membrane protein suspended in 10 mM TRIS-HC pH 7.2, 2 mM EDTA, 10% sucrose. Membranes were maintained at 4-8° C. A portion (1 ml) of membranes was added into 10 ml cold binding assay buffer. […] The pellet membranes (75 μg/ml) were preincubated with SPA (10 mg/ml) at 25° C. for 45 min in the assay buffer. […] The data were analyzed on a Top counter. […]
Returns criterion met if the recorded DOR GTP-binding Assay v2 (% I) is greater than or equal to 50%, and criterion not met otherwise.

The examples below pair each entry with its known result.
Chemical Structure: COc1ccc(CN(C(=O)[C@@H](N)Cc2c(C)cc(C(N)=O)cc2C)[C@@H](C)c2nc(-c3ccccc3Br)c[nH]2)cc1C(=O)O
Category Label: criterion met

Chemical Structure: Cc1cc(C(N)=O)cc(C)c1C[C@H](N)C(=O)N(Cc1ccccc1C(=O)O)[C@@H](C)c1nc(-c2ccccc2)c[nH]1
Category Label: criterion not met

Chemical Structure: Cc1cc(C(N)=O)cc(C)c1C[C@H](N)C(=O)N(Cc1ccc(C(=O)O)cn1)[C@@H](C)c1nc(-c2ccccc2)c[nH]1
Category Label: criterion met

Chemical Structure: COC(=O)c1ccc(CN(C(=O)[C@@H](N)Cc2c(C)cc(C(N)=O)cc2C)[C@@H](C)c2nc(-c3ccccc3)c[nH]2)cn1
Category Label: criterion met

Please examine the following record next.
Q: Check this compound for DOR GTP-binding Assay v2 (% I) at or above 50%: `Cc1cc(C(N)=O)cc(C)c1C[C@H](N)C(=O)N(Cc1cccc(C(=O)O)c1)[C@@H](C)c1nc(-c2ccccc2)c[nH]1`
A: criterion met
